Every entry's value here was drawn from the nanobody polyreactivity screen of Harvey et al. (2022).

- experiment_summary: yeast display, Sf9 membrane polyspecificity reagent, FACS + sequencing; frameworks hold sequencing errors
endpoint_name: polyreactivity (PSR sort gate)

Known results for sequences:
In: What measured polyreactivity (PSR sort gate) goes with QVQLVESGGGLVQAGGSLRLSCAASGFIFVPYAMGWYRQAPGKERELVAAIDTSGGNTYADSVKGRFTISRDNAKNTVYLQMNSLKPEDTAVYYCAARYQWDWRDYYYWGQGTQVTVSS ?
Out: low polyreactivity

In: For QVQLEESGGGLVQAGGSLRLSCAAYGSIIPFYPMGWYRQAPWTERELVAAISDRGGSTYYADSVKGRFTISRDNAKYTVYLQMNSLKPEDTAVYYGAKGGEVSQGYTDEYDYWGQGTQVTVSS , what is its reported polyreactivity (PSR sort gate)?
Out: low polyreactivity

In: So what does the record say about polyreactivity (PSR sort gate) for QVQLVESGGGLVQAGGSLRLSCAASGITFVFYAMGWYRQAPGKEREFVAGITWRGGRTYYADSVKGRFTISRDNAKNTVYLQMNSLKPEDTAVYYCNARSVVLTGGDYWGQGTQVTVSS ?
Out: high polyreactivity

In: What does the record list as polyreactivity (PSR sort gate) for QVQLVESGGCLVQAGGSLRFICAASGRIFDDNAMGWYRPAPGKERELVATISSTGGRTYYADSLKGRFTISRDNAKNNVYLQMNSLKPEDTAVYYCAARRRQGGYYYWGQGTQVTVSS ?
Out: high polyreactivity

Let's switch to this sequence now.
In: I am curious: what polyreactivity (PSR sort gate) value has been reported for QVQLVESAGGLVQAGGSLRLSCAASGRTGVNAMGWYRQAPGKERGLVAAINTSVGRTYYADSVKGRFTISRDNAKNTVYLQMNSLKPEDTAVYYCNTDRLGAARYDYWGQGTQVTVSS ?
Out: low polyreactivity

====

- experiment_summary: yeast display, Sf9 membrane polyspecificity reagent, FACS + sequencing; frameworks hold sequencing errors
endpoint_name: polyreactivity (PSR sort gate)

In: Quick one: polyreactivity (PSR sort gate) of QVQLVESGGGLVQAGGSLRLSCAASGNTLDWYAMGWYRQAPGKERELVAAISSAGSTSYADSVKGRFTISRDNAKNTVYLQMNSLKPEDTAVYYCNVDVYSKDANFQSFASEYDYWGQGTQVTVSS ?
Out: low polyreactivity

In: I am curious: what polyreactivity (PSR sort gate) value has been reported for QVQLVESGGGLVQAGGSLRLSCAASGLTFQPNVMGWYRQATGKERELVAAISVRTTRTYYADSVKGRFTISRDNAKNTVYLQMNSLKPEDTAVYYCNTDISRNYYWALYGYWGQGTQVTVSS ?
Out: low polyreactivity

====

- experiment_summary: yeast display, Sf9 membrane polyspecificity reagent, FACS + sequencing; frameworks hold sequencing errors
endpoint_name: polyreactivity (PSR sort gate)

Below: 5 sequences and their reported polyreactivity (PSR sort gate).
In: So what's the measured polyreactivity (PSR sort gate) for this one? QVQLVESGGGLVQAGGSLRLSCAASGNAMGWYRQAPGKERELVAAITRRVGSTYYADSVKGRFTISRDNAKNTVYLQMNSLKPEDTAVYYCAADNPSYNLWYGYWGQGTQVTVSS
Out: low polyreactivity

In: Quick one: polyreactivity (PSR sort gate) for QVQLVESGGGLVQAGGSLRLSCAASGFIFSYYAMGWYRQAPGKERELVAAISSSGSRTYYADSVKGRFTISRDNAKNTVYLQMNSLKPEDTAVYYCAARGAAKYGYWGQGTQVTVSS ?
Out: high polyreactivity

In: I am curious: what polyreactivity (PSR sort gate) value has been reported for QVQLVESGGGLVQAGGSLRLSCAASGITFPGYAMGWYRQAPGKERELVAAIDWSGDGTYYADSVKGRFTISRDNAKNTVYLQMNSLKPEDTAVYYCAKDNYPNHSTVLAVIYDYWGQGTQVTVSS ?
Out: low polyreactivity

In: Any idea what its polyreactivity (PSR sort gate) is? The sequence is QVQLVESGGGLVQAGGSLRLSCAASGLTFDYYAMGWYRQAPGKERELVAAISIGGSTNYADSVKGRFTISRDNAKNTVYLQMNSLKPEDTAVYYCNAEFAPWGSAYGHDQYDYWGQGTQVTVSS
Out: low polyreactivity

In: Find the recorded polyreactivity (PSR sort gate) belonging to QVQLVESGGGLVQAGGSLRLSCAASGRTFDYNTMGWYRPAPGKDRELVAAISASGGSTYYADSVKGRFTISRDNAKNTVYLQMNSLKPEDTAVYYCNTYAGVEYYHWGQGTQVTVSS and report it.
Out: low polyreactivity

New cases:
In: What does the data say about its polyreactivity (PSR sort gate)? Entry: QVQLVESGGGLVQAGGSLRLSCAASGLTFYVYAMGWYRQAPGKEREFVAAISWSGTSTSYADSVKGRFTISRDNAKNTVYLQMNSLKPEDTAVYYCAADVHTPALYTYAAGDYWGQGTQVTVSS
Out: low polyreactivity

In: polyreactivity (PSR sort gate) lookup needed for QVQLVESGGGLVQAGGSLRLSCAASGSTFVDNLMGWYRQSPGKERELVAAIDFSTGSTYYADSVKGRFTISRDNAKNTVYLQMNSLKPDDTAVYYCNAKYYSWDWSSFNYWGQGTQVTVSS , thanks.
Out: low polyreactivity

In: Record request: polyreactivity (PSR sort gate) value, item QVQVVDSGGGLVQAGGSLSLSCAASGSIFIYYAMGWYRQAPGKERELVAVINDDGSTNYADSVKGRFTISRDNAMNTVYLQMNSLKPEDTAVYYCNTTIGTYYSPSDYWGQGTQVTVSS
Out: low polyreactivity

In: Param item = QVQLVESGGGLVQAGGSLRLSCAASGFTLLKNAMRGYRQAPGKERELVAAIRVSGGSTYYADSVKGRFTISRDNAKNSVYLQMNSLKPEDTAVYYCAAKYLRWPVSTMYYWGQGTQVTVSS ; retrieve measured polyreactivity (PSR sort gate).
Out: high polyreactivity

In: Data request, read-out polyreactivity (PSR sort gate), for QVQLVESGGGLVQAGGSLRLSCAASGSIFYSNAMGWYRQAPGKERQLVAAIDSGTSTNYADSVKGRFTISRDNAKNTVYLQMNSLKPEDTAVYYCARLLGPVRDKYDYDYWGQGTQVTVSS
Out: low polyreactivity

====

- experiment_summary: yeast display, Sf9 membrane polyspecificity reagent, FACS + sequencing; frameworks hold sequencing errors
endpoint_name: polyreactivity (PSR sort gate)

In: polyreactivity (PSR sort gate) lookup needed for QVQLVESGGGLVQAGGSLRLSCAASGFTFKYYTMGWYRQAPGKERELVAAISKSGDITYYADSVKGRFTISRDNAKNTVYLQMNSLKPEDTAVYYCAAVGRVSYNRFDYWGQGTQVTVSS , thanks.
Out: high polyreactivity

In: Please look up its polyreactivity (PSR sort gate): QVQLVESGGGLVQAGGSLRLSCAASGITFGSYAMGWYRQAPGKEREFVAAISLSGGNTYYADSVKGRFTISRDNAKNTVYLQMNSLKPEDTAVYYCAADYEYSGYGYWGQGTQVTVSS
Out: high polyreactivity

====

- experiment_summary: yeast display, Sf9 membrane polyspecificity reagent, FACS + sequencing; frameworks hold sequencing errors
endpoint_name: polyreactivity (PSR sort gate)

In: Quick check: polyreactivity (PSR sort gate) of QVQLVESGRGLVQAGGSLRLSCAASGITYGNNAMGWYRQAPGKERELVATITSSGGSTYYADSVKGRFTISRDNAKNTVYSQMNSLKPEDTAVYYCAARQPGTRYPYDYWGQGTQVTVSS ?
Out: high polyreactivity

In: Given the sequence QVQLVESGGCLVQAGGSLRLSCSASGIIFFPYAMGWYRQAPGKERELVASINISDSSTYYADSVNGRFTISRDNAKNTVYLQMNTLKPEDSAVSYCAADNPGDSWYWHGNWGQGTQVTVSS , what is its reported polyreactivity (PSR sort gate)?
Out: low polyreactivity

In: Request the reported polyreactivity (PSR sort gate) associated with QVQLVESGGGLVKAGGSLRLSCAASGSIFPFYAMGSYRQAPGKERELVATISWSGGRTYYADSVKGRFTISRDNAKNTVYLQMNSLKPEDTAVYYCAAGSYHYPNAYYYWGQGTQVTVSS
Out: high polyreactivity

In: Using the record for QVQLVESGGGLVQAGGSLRLSCAASGRIFGPYTMGWYRQAPGKERELVAAITGRVVSTYYADSVKGRFTISRDNAKNTVYLQMNSLKPEDTAVYYCAKASHYWSQRFGYWGQGTQVTVSS , report its polyreactivity (PSR sort gate).
Out: high polyreactivity

Now turn to the next sequence.
In: Quick one: polyreactivity (PSR sort gate) of QVQLVESGGGLVQAGGSLRLSCAASGSTFTDYDMGWYRQAPGKERELVAAITSGGSTNYADSVKGRFTISRDNAKNTVYLQMNSLKPEDTAVYYCAAADADRKYDYWGQGTQVTVSS ?
Out: low polyreactivity

====

- experiment_summary: yeast display, Sf9 membrane polyspecificity reagent, FACS + sequencing; frameworks hold sequencing errors
endpoint_name: polyreactivity (PSR sort gate)

In: For the sequence QVQLVESGGGLVQAGGSLRLSCAASGIIFYIYAMGWYRQAPGKERELVAGISWRGGSTSYADSVKGRFTISRDNAKNTVYLQMNSLKPEDTAVYYCAAEVYSWDGYDYWGQGTQVTVSS , what polyreactivity (PSR sort gate) is on record?
Out: low polyreactivity

In: So what's the measured polyreactivity (PSR sort gate) for this one? QVQLVDSGGGLVQAGGSLRLSCAASGFTFYLYTMGWYRPAPGKERQLVATITSDGGTNYADSVKGRFTISRDNAKNTVYLQMNSLKPEDTAVYYCNAASRRGSRKQAKYDYWGQGTQVTVSS
Out: low polyreactivity

In: Looking for the measured polyreactivity (PSR sort gate) of QVQLVESGGGLVQAGGSLRLSSAASGSTFRYNALGWYRQAPGKERELVAAISSSGGSTRYADSVKGRFTISRDNEKYTDYLQMNSLKPEDTAVYYCDVRFYDWRYYYWGQGTQVTVSS , can you help?
Out: high polyreactivity

In: Requested field: polyreactivity (PSR sort gate). Item: QVQLVESGGGLVQAGGSLRLSCAASGLTFYGNAMGWYRQAPGKERELVAAISSSGGTTYYADSVKGRFTISRDNAKNTVYLQMNSLKPEDTAVYYCAARPSGGYESTRTRDYWGQGTQVTVSS
Out: low polyreactivity

Continuing:
In: Item QVQLVESGGGLVQAGVSLRLSCAASGITIKGNAKGWYRQAPGKERELVAAISRRGGNTYYADSVKGRFTISRDNAKNTVYLQMNSLKPEDTAVYYCAAEYNQSFDYWGQGTQVTVSS has what recorded polyreactivity (PSR sort gate)?
Out: low polyreactivity

In: Dear colleague, I am looking for the recorded polyreactivity (PSR sort gate) of the following sequence: QVHLEESCGGLVQAGGTLRLSCAASGSTFPRYVMGWYRQAPGKERELVAAITSGGSTYYADSVKGRFTISRDNAKNTVYLQMNRLKPEDTAVFYCAAGSYRVVWYDSWGQGTLVTVSS
Out: high polyreactivity

In: Need polyreactivity (PSR sort gate), item QVQLVESGGGIVQAGGSLRLSCAASGRTFYAYTMGWYRQAPGKETELVAANSRTGGRTYYADSVKGRFTISRDNAKNTVYLQMNSLKPEDTAVYYCAAGSKPGIQFRSVYSAYRYYYCGQGTQVTVSS
Out: high polyreactivity

In: What does the data say about its polyreactivity (PSR sort gate)? Entry: QVQLVESGGGLVQAGGSLRLSCAASGSIFAYYAIGWYRQAPGKEREFVAAISISGGSTNYADSVKRRFTISRDNAKNTVYLQMNSLKPEDTAVYSCAATSRWSSFGFYGQYNFWGQGTQVTVSS
Out: high polyreactivity

In: Given the entry QVHLVESGGGLVQAGGSLRLSCAASGRTFGINAMGWNRQAPGKERELVAVISFGDGGTYYADSVKGRFTISRDNAKNTVYLQMNSLKPEDTAVYYCATDYQSTSVWGGHFVINPYDYWGQGTQVTVSS , report its measured polyreactivity (PSR sort gate).
Out: low polyreactivity

In: # get_value(readout='polyreactivity (PSR sort gate)', item= QDQLVESRGGLVQAGGSLRLSCAASGRTFYINAMGWYRQAPGKERELVAAISWGGGRTYYADSVKGRFTISRDNAKNTVYLQMNSLKPEDTAVYYCAAEVAYYKYDYWGQGTQVTVSS )
Out: high polyreactivity

In: Requested field: polyreactivity (PSR sort gate). Item: QVQLQESGGGLVQAGGSLRLSCAASGSIFTQATMGWYRQAPGKERELVAAINFGSSTYYADSVKGRFTISRDNAKSTVYLQMNSLKPEDTAVYYCAVRALWYDFHDYWGQGTQVTVSS
Out: high polyreactivity
